Target: EBOV GP on recombinant EBOV-eGFP virus (Zaire ebolavirus (EBOV))
Test: cell-based or functional assay
Neutralization, IC50 ng/mL values by entry

Binder: EBOV-507 (antibody, V domains shown) VH: QVQLVQSGAEVKKPGASVKVSCKASGYTFNNYLINWVRQAPGQGLEWMGWINPHSGGTEYAQQFQGRLTVTRDTSIRTAYMELRGLTFDDSAMYYCWIWFRSETFDFWGQGTLVTVSS VL: DIQMTQSPSAMSASVGDRVTITCRASQDISNYLAWFQQKPGQGPKRLIFEASILHSGVPSRFSGSGSGTEFTLTISSLQPEDFATYYCLQHNTYLTFGQGTKVEIK
Assay Value: > 200000 ng/mL

Query :: Look up Neutralization, IC50 ng/mL for this binder: EBOV-442 (antibody, V domains shown) VH: EVQLVESGGGLVKPGGSLRLSCTGSGGTGFTFKYAGMSWVRQAPGKGPEWIGRIKSRIDGGTTDYAAPVKDRFIVSRDDSRNTLYLQMNSLKTEDTAVYYCATGSGKGPSASFGESYYYYDFINVWGKGTTVTVSS VL: ESVLTQSPGTLSLSPGERATLSCRASQSISRKYLAWYQQKPGQAPRLLIYGSSSRATGIPDRFSGSGSGTDFTLTISRLEPEDFAVYYCHQYESSPWTFGQGTKVEIK
Result :: 467 ng/mL

Query :: Look up Neutralization, IC50 ng/mL for this binder: EBOV-434 (antibody, V domains shown) VH: QVQLVQSGAEVKKPGASVKVSCKASGYTFTGYYMFWVRQAPGQGLEWMGWINPNSGGTNYTQKFQGRVTMTRDTSISTAYMELSRLKSDDTAVYYCARDSGELLFVGSDVWGQGTLVTVSS VL: DIQMTQSPSSVSASVGDRVTITCRASLDISYWLAWYQQKPGKAPKLLIYAASNLQSGVPSRFSGSGSGTDFTLTISSLQPEDFATYYCQQANSFPQTFGQGTRLELK
Result :: > 200000 ng/mL
